tested target: CXCR3-PK1 (Homo sapiens, UniProt P49682)
Construct: expressed in transfected cells; host or cells: HEK293 cells stably expressing beta-gal enzyme acceptor (PathHunter, DiscoveRx), transiently transfected
Sequence (P49682 1-368): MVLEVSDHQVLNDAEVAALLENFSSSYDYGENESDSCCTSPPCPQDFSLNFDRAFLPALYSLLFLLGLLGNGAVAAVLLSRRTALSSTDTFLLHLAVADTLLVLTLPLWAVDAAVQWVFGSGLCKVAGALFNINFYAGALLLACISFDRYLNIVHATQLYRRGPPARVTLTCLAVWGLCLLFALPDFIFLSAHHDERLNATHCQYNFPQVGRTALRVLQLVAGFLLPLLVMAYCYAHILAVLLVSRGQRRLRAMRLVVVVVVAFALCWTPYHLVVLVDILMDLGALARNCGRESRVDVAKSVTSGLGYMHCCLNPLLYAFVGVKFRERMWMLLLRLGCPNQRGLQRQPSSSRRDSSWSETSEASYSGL
assay remarks: β-arrestin 2 recruitment assay (PathHunter, DiscoveRx), CXCR3-PK1 construct
Format: cell-based
experimental parameters: % of CXCL11 mediated effect; CXCR3-PK1; read-out: CXCR3-PK1 efficacy (%) (converted)
Method: β-arrestin 2 recruitment assay: The measurement of β-arrestin recruitment was performed utilizing the PathHunter assay purchased from DiscoveRx (DiscoveRx, Birmingham, U.K.) according to the manufacturer's protocol. […] Chemiluminescence was determined with a microplate reader Clariostar (BMG labtech, Ortenberg, Germany). […]
outcome measure: Emax (%)

compound: CC(=O)CCC(=O)N1Cc2ccccc2C[C@H]1C(=O)NCCCC[C@H](NC(=O)OC(C)(C)C)C(=O)NCC(c1ccccc1)c1ccccc1
numeric result: 34
--
compound: N[C@@H](CCCCNC(=O)[C@@H]1Cc2ccccc2CN1C(=O)CCC(=O)c1ccccc1)C(=O)NCC(c1ccccc1)c1ccccc1.O=C(O)C(F)(F)F [Compound 25, 2,2,2-trifluoroacetate]
numeric result: 17
--
compound: NCCCC[C@H](NC(=O)[C@@H]1Cc2ccccc2CN1C(=O)CCC(=O)c1ccccc1)C(=O)NCC(c1ccccc1)c1ccccc1.O=C(O)C(F)(F)F [Compound 46, 2,2,2-trifluoroacetate, reference compound]
numeric result: 139
--
compound: N[C@@H](CCCCNC(=O)[C@@H]1Cc2ccccc2CN1)C(=O)NCC(c1ccccc1)c1ccccc1.O=C(O)C(F)(F)F.O=C(O)C(F)(F)F [Compound 28, 2,2,2-trifluoroacetate]
numeric result: 14
--
compound: NCCCC[C@@H](NC(=O)[C@@H]1Cc2ccccc2CN1C(=O)CCC(=O)c1ccccc1)C(=O)NCC(c1ccccc1)c1ccccc1.O=C(O)C(F)(F)F [Compound 47, 2,2,2-trifluoroacetate]
numeric result: 108

(A) N[C@@H](CCCCNC(=O)[C@@H]1Cc2ccccc2CN1C(=O)CCCC(=O)c1ccccc1)C(=O)NCC(c1ccccc1)c1ccccc1.O=C(O)C(F)(F)F [Compound 26, 2,2,2-trifluoroacetate]
(B) CC(C)(C)OC(=O)N[C@@H](CCCCNC(=O)[C@@H]1Cc2ccccc2CN1)C(=O)NCC(c1ccccc1)c1ccccc1
Q: Which of the two items, A and B , has the greater recorded Emax? # reply format: chosen label
A: B

(P) CC(C)(C)OC(=O)N[C@@H](CCCCNC(=O)[C@@H]1Cc2ccccc2CN1C(=O)CCc1ccccc1)C(=O)NCC(c1ccccc1)c1ccccc1
(Q) CC(C)(C)OC(=O)N[C@@H](CCCCNC(=O)[C@@H]1Cc2ccccc2CN1C(=O)CCC(=O)c1ccccc1)C(=O)NCC(c1ccccc1)c1ccccc1
Q: Which of the two items, P and Q , has the greater recorded Emax? # reply format: chosen label
A: Q

(I) CC(C)(C)OC(=O)N[C@H](CCCCNC(=O)[C@@H]1Cc2ccccc2CN1C(=O)CCC(=O)c1ccccc1)C(=O)NCC(c1ccccc1)c1ccccc1
(II) N[C@H](CCCCNC(=O)[C@@H]1Cc2ccccc2CN1C(=O)CCC(=O)c1ccccc1)C(=O)NCC(c1ccccc1)c1ccccc1.O=C(O)C(F)(F)F [Compound 35, 2,2,2-trifluoroacetate]
Q: Which of the two items, I and II , has the greater recorded Emax? # reply format: chosen label
A: II

----------
tested target: CXCR3 (Homo sapiens, UniProt P49682)
Construct: expressed in transfected cells; host or cells: HEK293 / HEK293T cells, stably transfected; membrane preparations
assay remarks: [35S]GTPγS incorporation assay
Assay type: biochemical
experimental parameters: % of CXCL11 mediated effect; membrane preparations of HEK293T stably expressing CXCR3; read-out: CXCR3 Efficacy (%) ± SEM
outcome measure: Emax (%)

molecule: N[C@H](CCCCNC(=O)[C@@H]1Cc2ccccc2CN1C(=O)CCC(=O)c1ccccc1)C(=O)NCC(c1ccccc1)c1ccccc1.O=C(O)C(F)(F)F [Compound 35, 2,2,2-trifluoroacetate]
Emax (%): 25
//
molecule: CC(C)(C)OC(=O)N[C@@H](CCCCNC(=O)[C@@H]1Cc2ccccc2CN1C(=O)CCc1ccccc1)C(=O)NCC(c1ccccc1)c1ccccc1 [Compound 23]
Emax (%): 30
//
molecule: CC(C)(C)OC(=O)N[C@@H](CCCCNC(=O)[C@@H]1Cc2ccccc2CN1)C(=O)NCC(c1ccccc1)c1ccccc1 [Compound 5]
Emax (%): 34

----------
tested target: CXCR3-PK2 (Homo sapiens, UniProt P49682)
Construct: expressed in transfected cells
Sequence (P49682 1-368): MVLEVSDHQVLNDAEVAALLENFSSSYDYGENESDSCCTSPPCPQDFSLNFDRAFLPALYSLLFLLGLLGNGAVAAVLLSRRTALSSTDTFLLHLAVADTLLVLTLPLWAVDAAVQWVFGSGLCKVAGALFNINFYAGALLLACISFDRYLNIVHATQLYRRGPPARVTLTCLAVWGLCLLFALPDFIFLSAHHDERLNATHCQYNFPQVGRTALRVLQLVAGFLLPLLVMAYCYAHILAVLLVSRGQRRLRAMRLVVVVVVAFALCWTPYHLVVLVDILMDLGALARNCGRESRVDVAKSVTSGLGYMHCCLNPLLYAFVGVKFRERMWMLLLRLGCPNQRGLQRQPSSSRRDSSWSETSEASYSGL
assay remarks: β-arrestin 2 recruitment assay (PathHunter, DiscoveRx), CXCR3-PK2 construct
Type: cell-based
experimental parameters: HEK293-T cells, PathHunter, CXCR3-PK2
Description: β-arrestin 2 recruitment assay: The measurement of β-arrestin recruitment was performed utilizing the PathHunter assay purchased from DiscoveRx (DiscoveRx, Birmingham, U.K.) according to the manufacturer's protocol. […] Chemiluminescence was determined with a microplate reader Clariostar (BMG labtech, Ortenberg, Germany). […]
outcome measure: CXCR3-PK2 pEC50 ± SEM

compound: CC(C)(C)OC(=O)N[C@@H](CCCCNC(=O)[C@@H]1Cc2ccccc2CN1C(=O)CCCC(=O)c1ccccc1)C(=O)NCC(c1ccccc1)c1ccccc1 [Compound 24]
tested target: CXCR3-PK2 (Homo sapiens, UniProt P49682)
CXCR3-PK2 pEC50 ± SEM: 6.78
--
compound: CC(C)(C)OC(=O)NCCCC[C@@H](NC(=O)[C@@H]1Cc2ccccc2CN1C(=O)CCC(=O)c1ccccc1)C(=O)NCC(c1ccccc1)c1ccccc1 [Compound 45]
tested target: CXCR3-PK2 (Homo sapiens, UniProt P49682)
CXCR3-PK2 pEC50 ± SEM: 7.23
--
compound: CC(C)(C)OC(=O)N[C@@H](CCCCNC(=O)[C@@H]1Cc2ccccc2CN1)C(=O)NCC(c1ccccc1)c1ccccc1 [Compound 5]
tested target: CXCR3-PK2 (Homo sapiens, UniProt P49682)
CXCR3-PK2 pEC50 ± SEM: 6.71
--
compound: N[C@@H](CCCCNC(=O)[C@@H]1Cc2ccccc2CN1)C(=O)NCC(c1ccccc1)c1ccccc1.O=C(O)C(F)(F)F.O=C(O)C(F)(F)F [Compound 28]
tested target: CXCR3-PK2 (Homo sapiens, UniProt P49682)
CXCR3-PK2 pEC50 ± SEM: 6.55
--
compound: CC(=O)CCC(=O)N1Cc2ccccc2C[C@H]1C(=O)NCCCC[C@H](NC(=O)OC(C)(C)C)C(=O)NCC(c1ccccc1)c1ccccc1 [Compound 12]
tested target: CXCR3-PK2 (Homo sapiens, UniProt P49682)
CXCR3-PK2 pEC50 ± SEM: 6.64
--
compound: N[C@@H](CCCCNC(=O)[C@@H]1Cc2ccccc2CN1C(=O)CCCC(=O)c1ccccc1)C(=O)NCC(c1ccccc1)c1ccccc1.O=C(O)C(F)(F)F [Compound 26]
tested target: CXCR3-PK2 (Homo sapiens, UniProt P49682)
CXCR3-PK2 pEC50 ± SEM: 6.90

----------
tested target: CXCR3 (Homo sapiens, UniProt P49682)
Construct: expressed in transfected cells; host or cells: HEK293 / HEK293T cells, stably transfected; membrane preparations
Sequence (P49682 1-368): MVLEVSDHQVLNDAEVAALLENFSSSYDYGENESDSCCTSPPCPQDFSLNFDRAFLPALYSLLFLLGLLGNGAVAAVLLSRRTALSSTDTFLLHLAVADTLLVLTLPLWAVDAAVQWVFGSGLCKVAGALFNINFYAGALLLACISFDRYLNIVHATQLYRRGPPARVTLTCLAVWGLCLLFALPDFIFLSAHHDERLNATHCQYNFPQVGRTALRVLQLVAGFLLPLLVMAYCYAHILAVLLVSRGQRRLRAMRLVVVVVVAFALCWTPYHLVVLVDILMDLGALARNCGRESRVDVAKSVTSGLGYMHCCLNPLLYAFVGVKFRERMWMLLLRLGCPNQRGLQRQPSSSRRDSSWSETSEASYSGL
assay remarks: [35S]GTPγS incorporation assay
Type: biochemical
experimental parameters: [35S]GTPγS incorporation
outcome measure: CXCR3 mediated G protein activation (result in words)

smiles input: CC(C)(C)OC(=O)N[C@@H](CCCCNC(=O)[C@@H]1Cc2ccccc2CN1C(=O)CCC(=O)N1CCOCC1)C(=O)NCC(c1ccccc1)c1ccccc1
result: no effect

smiles input: CN1CCN(C(=O)CCC(=O)N2Cc3ccccc3C[C@H]2C(=O)NCCCC[C@H](NC(=O)OC(C)(C)C)C(=O)NCC(c2ccccc2)c2ccccc2)CC1.O=C(O)C(F)(F)F
result: no effect
